Source: ChEMBL document CHEMBL1140218

Test system: Plasmodium yoelii nigeriensis
method.summary: Antimalarial activity as survival time against multidrug-resistant Plasmodium yoelii nigeriensis in Swiss mice (Mus musculus) at 96 mg/kg peroral dose for 4 days
Assay type: functional
cond: route oral
reported.property: Survival (days)
Only the number, expressed in days, is required.

Example results:
# molecule, Survival [days]
records = [
    ("C=C(c1ccc(OCC(O)COc2ccc(C(=C)C3COC4(OO3)C3CC5CC(C3)CC4C5)cc2)cc1)C1COC2(OO1)C1CC3CC(C1)CC2C3 (configuration not stated)", 8.6),
    ("C=C(c1ccc(Oc2ccc(C(=C)C3COC4(OO3)C3CC5CC(C3)CC4C5)cc2)cc1)C1COC2(OO1)C1CC3CC(C1)CC2C3 (configuration not stated)", 7.2),
    ("C=C(c1ccc(Oc2cccc3c(Oc4ccc(C(=C)C5COC6(CCCC6)OO5)cc4)cccc23)cc1)C1COC2(CCCC2)OO1 (configuration not stated)", 8.4),
    ("C=C(c1ccc(Oc2ccc(Oc3ccc(C(=C)C4COC5(CCCC5)OO4)cc3)cc2)cc1)C1COC2(CCCC2)OO1 (configuration not stated)", 7.6),
]

Q: Any idea what Survival was measured for C=C(c1ccc(Oc2ccc3ccc(Oc4ccc(C(=C)C5COC6(OO5)C5CC7CC(C5)CC6C7)cc4)cc3c2)cc1)C1COC2(OO1)C1CC3CC(C1)CC2C3 (configuration not stated) ?
A: 7.4

----------
A collection of molecules and their measured Activity
Test system: Plasmodium yoelii nigeriensis
method.summary: Antimalarial activity as reduced parasitaemia against multidrug-resistant Plasmodium yoelii nigeriensis in Swiss mice (Mus musculus) at 48 mg/kg peroral dose for 4 days
Format: functional
Design: scale not given: the % may be the effect or the level left
cond: route oral
Form entry: value (%) — number only.

Past entries and their recorded results:
# molecule, Activity, %
rows = [
    ("C=C(c1ccc(Oc2ccc(C(=C)C3COC4(CCCCC4)OO3)cc2)cc1)C1COC2(CCCCC2)OO1 (centres undefined)", 100),
    ("C=C(c1ccc(OCC(O)COc2ccc(C(=C)C3COC4(CCCCC4)OO3)cc2)cc1)C1COC2(CCCCC2)OO1 (centres undefined)", 75.86),
    ("C=C(c1ccc(Oc2ccc(C(=C)C3COC4(CCCC4)OO3)cc2)cc1)C1COC2(CCCC2)OO1 (centres undefined)", 100),
]

Q: Which Activity is listed for CCO[C@@H]1C[C@@H]2CC[C@@H](C)[C@@H]3CC[C@]4(C)OO[C@@]23[C@H](O1)O4 ?
A: 100

Q: Record: C=C(c1ccc(OCCCOc2ccc(C(=C)C3COC4(CCCC4)OO3)cc2)cc1)C1COC2(CCCC2)OO1 (centres undefined)
A: 100

----------
Tested on: Plasmodium yoelii nigeriensis
method.summary: Antimalarial activity as reduced parasitaemia against multidrug-resistant Plasmodium yoelii nigeriensis in Swiss mice (Mus musculus) at 48 mg/kg peroral dose for 4 days
Type: functional
Design: scale not given: the % may be the effect or the level left
cond: route oral
A collection of compounds and their measured Activity
I only need the number, in %, no unit after it.

Q: GET /values?readout=Activity&item= C=C(c1ccc(OCC(O)COc2ccc(C(=C)C3COC4(CCCC4)OO3)cc2)cc1)C1COC2(CCCC2)OO1 (centres undefined)
A: 74.32

Q: // next record C=C(c1ccc(OCCOc2ccc(C(=C)C3COC4(CCCC4)OO3)cc2)cc1)C1COC2(CCCC2)OO1 (centres undefined)
A: 87.76

Q: Follow-up entry: C=C(c1ccc(OCCCOc2ccc(C(=C)C3COC4(CCCCC4)OO3)cc2)cc1)C1COC2(CCCCC2)OO1 (centres undefined)
A: 87.47

Q: Subsequent entry: C=C(c1ccc(Oc2cccc(C(=C)C3COC4(CCCC4)OO3)c2)cc1)C1COC2(CCCC2)OO1 (centres undefined)
A: 100
